- Tested on: RAW-Dual (murine macrophage reporter line)
- TEST SUMMARY: NF-kB reporter (SEAP) activity fold change vs agonist alone; higher = enhanced NF-kB activity
- ASSAY CONTEXT: modulator concentration 10 µM; agonist: CpG ODN 1826 0.5 ug/mL
ENDPOINT LABEL: NF-kB reporter
Lab note: record the figure alone, no unit after it.

Some compounds with recorded NF-kB reporter:
- CHEMICAL SMILES: "Brc1ccc2[nH]cc(-c3nnc4ccc5ccccc5n34)c2c1"
  NF-kB reporter: 0.644
- CHEMICAL SMILES: "COC(=O)CCS(=O)(=O)c1ccc2ccccc2c1"
  NF-kB reporter: 0.886
- CHEMICAL SMILES: "Cc1c(NC(=S)NC(=O)c2ccccc2[N+](=O)[O-])cccc1-c1nc2ccccc2s1"
  NF-kB reporter: 1.09
- CHEMICAL SMILES: "O=C1C(=CNCCN2CCOCC2)C(C(F)(F)F)=NN1c1nc2ccccc2s1"
  NF-kB reporter: 0.967
- CHEMICAL SMILES: "C=C(Br)Cn1c(COc2ccccc2)nc2ccccc21"
  NF-kB reporter: 0.562

Continue with the compound presented below.
Name the recorded NF-kB reporter of the item O=c1[nH][nH]c(=O)c2c(N=Cc3cc4c(cc3[N+](=O)[O-])OCO4)cccc12 in your answer.
0.878

Taken from the supplement of paper PMC10646978.
